measurement.target: T1, human IL1RAP (hu-IL1RAP) on human cells (human, UniProt Q9NPH3 21-570)
T1 sequence: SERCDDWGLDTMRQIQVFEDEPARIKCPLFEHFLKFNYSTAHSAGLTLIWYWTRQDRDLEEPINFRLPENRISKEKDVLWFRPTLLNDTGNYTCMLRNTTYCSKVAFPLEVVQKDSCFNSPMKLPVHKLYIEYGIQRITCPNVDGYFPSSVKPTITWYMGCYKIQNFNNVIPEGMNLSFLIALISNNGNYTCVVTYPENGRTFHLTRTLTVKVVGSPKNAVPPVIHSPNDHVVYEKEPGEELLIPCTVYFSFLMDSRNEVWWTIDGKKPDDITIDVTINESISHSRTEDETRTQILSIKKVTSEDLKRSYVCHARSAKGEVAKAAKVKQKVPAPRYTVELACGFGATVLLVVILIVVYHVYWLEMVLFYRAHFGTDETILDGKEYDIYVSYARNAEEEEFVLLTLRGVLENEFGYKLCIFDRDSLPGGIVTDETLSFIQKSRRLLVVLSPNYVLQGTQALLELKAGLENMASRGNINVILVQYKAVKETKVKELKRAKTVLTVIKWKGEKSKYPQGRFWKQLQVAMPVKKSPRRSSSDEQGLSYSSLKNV
assay.explanation: cell-based or functional assay
reported.property: HEK-Blue, IL-33, % inhibition at 100 nM (Fab) (%)
Write it as a number; the unit % goes unstated.

Please review the entries below; each comes with its answer.
>>> value_observed("K13/H2 Fab (VL-A51Y/W92I, VH-R96D) (Fab, V domains shown, Fab with 8xHis tag) VH: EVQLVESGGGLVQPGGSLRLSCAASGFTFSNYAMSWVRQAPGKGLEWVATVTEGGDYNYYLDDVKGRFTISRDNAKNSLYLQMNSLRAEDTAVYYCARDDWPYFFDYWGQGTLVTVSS VL: DIQMTQSPSSLSASVGDRVTITCRASENIYSNLAWYQQKPGKSPKLLVYGYKNLADGVPSRFSGSGSGTDYTLTISSLQPEDFATYYCQHFITTPRTFGGGTKVEIK")
98
>>> value_observed("K10/H2 Fab (VL-A51Y, VH-R96D) (Fab, V domains shown, Fab with 8xHis tag) VH: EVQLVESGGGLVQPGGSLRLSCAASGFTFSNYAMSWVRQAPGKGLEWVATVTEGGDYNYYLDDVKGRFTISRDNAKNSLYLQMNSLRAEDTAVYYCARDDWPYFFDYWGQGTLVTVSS VL: DIQMTQSPSSLSASVGDRVTITCRASENIYSNLAWYQQKPGKSPKLLVYGYKNLADGVPSRFSGSGSGTDYTLTISSLQPEDFATYYCQHFWTTPRTFGGGTKVEIK")
99
>>> value_observed("Parent Fab (Fab of h11C5_C59Y/A43S) (Fab, V domains shown, Fab with 8xHis tag; also called parental Fab of h11C5_C59Y/A43S) VH: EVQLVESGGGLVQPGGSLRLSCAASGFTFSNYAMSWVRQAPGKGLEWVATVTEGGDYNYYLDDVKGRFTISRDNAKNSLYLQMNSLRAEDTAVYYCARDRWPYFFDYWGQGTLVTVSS VL: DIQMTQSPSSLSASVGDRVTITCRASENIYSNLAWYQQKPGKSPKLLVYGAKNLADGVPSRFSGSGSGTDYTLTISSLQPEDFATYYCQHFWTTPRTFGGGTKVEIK")
77
>>> value_observed("K10/H3 Fab (VL-A51Y, VH-V51S) (Fab, V domains shown, Fab with 8xHis tag) VH: EVQLVESGGGLVQPGGSLRLSCAASGFTFSNYAMSWVRQAPGKGLEWVATSTEGGDYNYYLDDVKGRFTISRDNAKNSLYLQMNSLRAEDTAVYYCARDRWPYFFDYWGQGTLVTVSS VL: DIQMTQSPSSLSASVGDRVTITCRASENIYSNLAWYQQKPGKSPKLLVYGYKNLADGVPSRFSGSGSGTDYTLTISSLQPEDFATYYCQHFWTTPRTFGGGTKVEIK")
98

Now for another entry.
// query Could you share which HEK-Blue, IL-33, % inhibition at 100 nM (Fab) value was measured for K17/H2 Fab (VL-A51Y/W92K, VH-R96D) (Fab, V domains shown, Fab with 8xHis tag) VH: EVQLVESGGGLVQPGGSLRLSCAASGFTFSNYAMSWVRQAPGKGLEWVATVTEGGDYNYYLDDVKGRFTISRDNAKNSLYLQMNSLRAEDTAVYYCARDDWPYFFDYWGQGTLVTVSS VL: DIQMTQSPSSLSASVGDRVTITCRASENIYSNLAWYQQKPGKSPKLLVYGYKNLADGVPSRFSGSGSGTDYTLTISSLQPEDFATYYCQHFKTTPRTFGGGTKVEIK ?
// result 97
